System: Proteus mirabilis
Experiment: Antimicrobial activity against Proteus mirabilis by broth microdilution method
Assay type: functional
Entries and their MIC90
OBSERVABLE: MIC90 (µg/mL)

1) C[C@H]1COc2c(N3CCN(C)CC3)c(F)cc3c(=O)c(C(=O)O)cn1c23.C[C@H]1COc2c(N3CCN(C)CC3)c(F)cc3c(=O)c(C(=O)O)cn1c23.O
0.25
2) C[C@@H](O)[C@H]1C(=O)N2C(C(=O)O)=C(SCCNC=N)C[C@H]12 [IMIPENEM ANHYDROUS]
4
3) CO/N=C(\C(=O)N[C@@H]1C(=O)N2C(C(=O)O)=C(CSc3nc(=O)c(O)nn3C)CS[C@H]12)c1csc(N)n1
0.015
4) CCO/N=C(\C(=O)N[C@@H]1C(=O)N2C(C(=O)[O-])=C(Sc3nc(-c4cc[n+](C)cc4)cs3)CS[C@H]12)c1nsc(NP(=O)(O)O)n1
4

----------
Tested on: Klebsiella pneumoniae
Test: Antimicrobial activity against ESBL-positive Klebsiella pneumoniae by broth microdilution method
Format: functional
Listed next: entries and their corresponding MIC90.
OBSERVABLE: MIC90 (µg/mL)

1) C[C@H]1COc2c(N3CCN(C)CC3)c(F)cc3c(=O)c(C(=O)O)cn1c23.C[C@H]1COc2c(N3CCN(C)CC3)c(F)cc3c(=O)c(C(=O)O)cn1c23.O
8
2) C[C@@H](O)[C@H]1C(=O)N2C(C(=O)O)=C(SCCNC=N)C[C@H]12 [IMIPENEM ANHYDROUS]
0.25

----------
Overview of reported MIC50 across a group of compounds:
Tested on: Staphylococcus aureus
Assay: Antimicrobial activity against methicillin-resistant Staphylococcus aureus by broth microdilution method
Assay type: functional
OBSERVABLE: MIC50 (µg/mL)

1) C[C@@H](O)[C@H]1C(=O)N2C(C(=O)O)=C(SCCNC=N)C[C@H]12 [IMIPENEM ANHYDROUS]
0.25
2) C[C@H]1COc2c(N3CCN(C)CC3)c(F)cc3c(=O)c(C(=O)O)cn1c23.C[C@H]1COc2c(N3CCN(C)CC3)c(F)cc3c(=O)c(C(=O)O)cn1c23.O
8
3) CCO/N=C(\C(=O)N[C@@H]1C(=O)N2C(C(=O)[O-])=C(Sc3nc(-c4cc[n+](C)cc4)cs3)CS[C@H]12)c1nsc(NP(=O)(O)O)n1
0.5
4) CO/N=C(\C(=O)N[C@@H]1C(=O)N2C(C(=O)O)=C(CSc3nc(=O)c(O)nn3C)CS[C@H]12)c1csc(N)n1
32

----------
System: Moraxella catarrhalis
Test: Antimicrobial activity against Moraxella catarrhalis by broth microdilution method
Assay type: functional
Each record here notes measured MIC90.
OBSERVABLE: MIC90

1) CO/N=C(\C(=O)N[C@@H]1C(=O)N2C(C(=O)O)=C(CSc3nc(=O)c(O)nn3C)CS[C@H]12)c1csc(N)n1
1 µg/mL
2) CCO/N=C(\C(=O)N[C@@H]1C(=O)N2C(C(=O)[O-])=C(Sc3nc(-c4cc[n+](C)cc4)cs3)CS[C@H]12)c1nsc(NP(=O)(O)O)n1
0.25 µg/mL
3) C[C@@H](O)[C@H]1C(=O)N2C(C(=O)O)=C(SCCNC=N)C[C@H]12 [IMIPENEM ANHYDROUS]
0.06 µg/mL
4) C[C@H]1COc2c(N3CCN(C)CC3)c(F)cc3c(=O)c(C(=O)O)cn1c23.C[C@H]1COc2c(N3CCN(C)CC3)c(F)cc3c(=O)c(C(=O)O)cn1c23.O
0.03 µg/mL

----------
Test system: Proteus vulgaris
Assay: Antimicrobial activity against Proteus vulgaris by broth microdilution method
Assay type: functional
OBSERVABLE: MIC50

1) C[C@H]1COc2c(N3CCN(C)CC3)c(F)cc3c(=O)c(C(=O)O)cn1c23.C[C@H]1COc2c(N3CCN(C)CC3)c(F)cc3c(=O)c(C(=O)O)cn1c23.O [LEVOFLOXACIN]
0.03 µg/mL
2) CO/N=C(\C(=O)N[C@@H]1C(=O)N2C(C(=O)O)=C(CSc3nc(=O)c(O)nn3C)CS[C@H]12)c1csc(N)n1 [CEFTRIAXONE]
1 µg/mL
3) C[C@@H](O)[C@H]1C(=O)N2C(C(=O)O)=C(SCCNC=N)C[C@H]12 [IMIPENEM ANHYDROUS]
2 µg/mL
4) CCO/N=C(\C(=O)N[C@@H]1C(=O)N2C(C(=O)[O-])=C(Sc3nc(-c4cc[n+](C)cc4)cs3)CS[C@H]12)c1nsc(NP(=O)(O)O)n1 [CEFTAROLINE FOSAMIL]
16 µg/mL

----------
Tested on: Staphylococcus aureus
Assay: Antimicrobial activity against methicillin-susceptible Staphylococcus aureus by broth microdilution method
Type: functional
OBSERVABLE: MIC50 (µg/mL)

1) CO/N=C(\C(=O)N[C@@H]1C(=O)N2C(C(=O)O)=C(CSc3nc(=O)c(O)nn3C)CS[C@H]12)c1csc(N)n1 [CEFTRIAXONE]
4
2) CCO/N=C(\C(=O)N[C@@H]1C(=O)N2C(C(=O)[O-])=C(Sc3nc(-c4cc[n+](C)cc4)cs3)CS[C@H]12)c1nsc(NP(=O)(O)O)n1 [CEFTAROLINE FOSAMIL]
0.25
3) C[C@@H](O)[C@H]1C(=O)N2C(C(=O)O)=C(SCCNC=N)C[C@H]12 [IMIPENEM ANHYDROUS]
0.015
4) C[C@H]1COc2c(N3CCN(C)CC3)c(F)cc3c(=O)c(C(=O)O)cn1c23.C[C@H]1COc2c(N3CCN(C)CC3)c(F)cc3c(=O)c(C(=O)O)cn1c23.O [LEVOFLOXACIN]
0.25

----------
System: Providencia rettgeri
Assay: Antimicrobial activity against Proteus rettgeri by broth microdilution method
Format: functional
OBSERVABLE: MIC90 (µg/mL)

1. CCO/N=C(\C(=O)N[C@@H]1C(=O)N2C(C(=O)[O-])=C(Sc3nc(-c4cc[n+](C)cc4)cs3)CS[C@H]12)c1nsc(NP(=O)(O)O)n1
4
2. CO/N=C(\C(=O)N[C@@H]1C(=O)N2C(C(=O)O)=C(CSc3nc(=O)c(O)nn3C)CS[C@H]12)c1csc(N)n1
0.25
3. C[C@@H](O)[C@H]1C(=O)N2C(C(=O)O)=C(SCCNC=N)C[C@H]12 [IMIPENEM ANHYDROUS]
4

----------
Below is a list of entries, each paired with its recorded MIC90 value.
System: Enterobacter cloacae
Test: Antimicrobial activity against ESBL-negative Enterobacter cloacae by broth microdilution method
Assay type: functional
OBSERVABLE: MIC90 (µg/mL)

1. C[C@H]1COc2c(N3CCN(C)CC3)c(F)cc3c(=O)c(C(=O)O)cn1c23.C[C@H]1COc2c(N3CCN(C)CC3)c(F)cc3c(=O)c(C(=O)O)cn1c23.O [LEVOFLOXACIN]
0.06
2. CO/N=C(\C(=O)N[C@@H]1C(=O)N2C(C(=O)O)=C(CSc3nc(=O)c(O)nn3C)CS[C@H]12)c1csc(N)n1 [CEFTRIAXONE]
0.5
3. CCO/N=C(\C(=O)N[C@@H]1C(=O)N2C(C(=O)[O-])=C(Sc3nc(-c4cc[n+](C)cc4)cs3)CS[C@H]12)c1nsc(NP(=O)(O)O)n1 [CEFTAROLINE FOSAMIL]
0.5
4. C[C@@H](O)[C@H]1C(=O)N2C(C(=O)O)=C(SCCNC=N)C[C@H]12 [IMIPENEM ANHYDROUS]
0.5

----------
Reported values of MIC90 for individual entries
Test system: Streptococcus agalactiae
Assay: Antimicrobial activity against Streptococcus agalactiae by broth microdilution method
Type: functional
OBSERVABLE: MIC90 (µg/mL)

1) CCO/N=C(\C(=O)N[C@@H]1C(=O)N2C(C(=O)[O-])=C(Sc3nc(-c4cc[n+](C)cc4)cs3)CS[C@H]12)c1nsc(NP(=O)(O)O)n1
0.015
2) C[C@@H](O)[C@H]1C(=O)N2C(C(=O)O)=C(SCCNC=N)C[C@H]12 [IMIPENEM ANHYDROUS]
0.015
3) CO/N=C(\C(=O)N[C@@H]1C(=O)N2C(C(=O)O)=C(CSc3nc(=O)c(O)nn3C)CS[C@H]12)c1csc(N)n1
0.12
4) C[C@H]1COc2c(N3CCN(C)CC3)c(F)cc3c(=O)c(C(=O)O)cn1c23.C[C@H]1COc2c(N3CCN(C)CC3)c(F)cc3c(=O)c(C(=O)O)cn1c23.O
1

----------
Tested on: Escherichia coli
Experiment: Antimicrobial activity against ESBL-positive Escherichia coli by broth microdilution method
Format: functional
OBSERVABLE: MIC50 (µg/mL)

1) C[C@@H](O)[C@H]1C(=O)N2C(C(=O)O)=C(SCCNC=N)C[C@H]12 [IMIPENEM ANHYDROUS]
0.12
2) C[C@H]1COc2c(N3CCN(C)CC3)c(F)cc3c(=O)c(C(=O)O)cn1c23.C[C@H]1COc2c(N3CCN(C)CC3)c(F)cc3c(=O)c(C(=O)O)cn1c23.O [LEVOFLOXACIN]
0.25
